Data origin, for the record: the supplement of paper PMC6555819

Tested on: PPARg:RXRa 270nM:90nM, anti-RXR (NR concentration 270 nM, RXRa partner concentration 90 nM)
Experimental protocol: PBM binding z-score (relative to random genomic background probes); higher = stronger binding; sequences stand for … in GC…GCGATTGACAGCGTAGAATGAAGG
Assign fulfilled to entries whose PBM binding z-score meets or exceeds 2; assign not fulfilled to the rest.

Dear colleague, could you confirm whether TGAATGCGGTTATAAGATCAGGGAACGTTGCAAA has PBM binding z-score at or above 2?
not fulfilled

Decide: PBM binding z-score of AGAATGAGGTTATTAAGATCAGCGAATTGCGGTC >= 2?
not fulfilled

Does PBM binding z-score meet or surpass 2 for CCTCGGAGGACAGAAGGTCTGAGCTGTCCGCTTT ?
not fulfilled

Given the entry CCTCGGAGGACAGAAGGTGAGAGCTGTCCGCTTT , answer whether its PBM binding z-score meets or surpasses 2.
not fulfilled

Is PBM binding z-score for ACTAGTTGGTCAGCTGAGGTCACAGACAATTCGG at or above 2?
fulfilled

Determine whether this sequence has PBM binding z-score no lower than 2: GCTTACGGGTCAAAGGTTATAGCCTGAATAGAAT
fulfilled

# bool: PBM binding z-score of ACAGACAGGTGCGTGAAGGTAACTCAGCTGGACG >= 2
not fulfilled

Can CGTACAAGGTCAGAGAGGTCAGTGAATGCCGAGT be said to have PBM binding z-score at or above 2?
fulfilled

Can TCATATAGGTAATACATGTGAAAGTCGGCATCTA be said to have PBM binding z-score at or above 2?
fulfilled

API: above_or_equal(metric=PBM binding z-score, cutoff=2) for item ACTAGCAGGCCAAGTTAGGGTCACTCAAACAAAG
not fulfilled

hey, is PBM binding z-score for this one >= 2? TCTAATTGGTCACGGAGGTCACACACGACGGGTA
fulfilled

Has CAAACTAGGTTAAGGTCAAAGTCGGTTTGTGCCA a recorded PBM binding z-score greater than or equal to 2?
fulfilled

----------
Kindly supply the reported PBM binding z-score values for the records listed here.
System: THRa:RXRa (NR concentration 90 nM, RXRa partner concentration 90 nM)
Experimental protocol: PBM binding z-score (relative to random genomic background probes); higher = stronger binding; sequences stand for … in GC…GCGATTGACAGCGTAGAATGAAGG
Lab note: jot the number down without any unit.

What the record says about CGTCCAAGGTCATAGGAGGTCAGTGTAGACAGAT : PBM binding z-score is 5.46

Entry CCTACTGGGCCAAAAAGGTCATCGATGCCGATAA , PBM binding z-score reported as 3.28

Reported PBM binding z-score of ATCTCTAGGTAAGACTCAGTTTAGTGAAGAACGC : 0.364

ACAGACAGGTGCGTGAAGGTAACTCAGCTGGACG yielded PBM binding z-score of -0.227

For ATACCAGGGTGATCGTGAGGTCGTTGATACTAAC the sequence record lists PBM binding z-score as 3.38

For this sequence ( AGAATGACGTTATTAAGATCAGGGAATTGCGGTC ), measured PBM binding z-score is -0.42

Sample CTCGAAAGGACGTGCTCAGGTGAGTATACCAAAC ; PBM binding z-score observed: 1.17

Value of measured PBM binding z-score for the entry CCTTACGGGTCGCGAGGTTATAGCACGACGAGCG : 2.25

Entry TCCGCTAGGTCAGTTGGTCAGCTAACGAGCTGCC , PBM binding z-score reported as 1.27

Consider CCTAGTTGGTCAGCAGGTCACACACCGGATATGA . Its measured PBM binding z-score is 2.77

Sure, the documented PBM binding z-score for AGCACGAGGGCACGCTGAGTTGATAGCAGAGTAG is 2.05

For CCTCACGGGTCACGAGGTTATAGCACGACGAGCG the sequence record lists PBM binding z-score as 3.36

----------
Test system: VDR:RXRa (NR concentration 270 nM, RXRa partner concentration 90 nM)
Experimental protocol: PBM binding z-score (relative to random genomic background probes); higher = stronger binding; sequences stand for … in GC…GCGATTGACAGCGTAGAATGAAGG
Class boundaries, taken from values of PBM binding z-score, are as follows: Low = under 0.5, Medium = from 0.5 up to 3, High = 3 and over

Form: Item = TCGAGTAGGTTACCAATGGGGCATTTAGCTTTCT ; Class = ?
Low

Where would TCTAGCAGACCAGAGGGTCACTCAAGAGGTACGG land among the classes by reported PBM binding z-score?
Medium

Any idea which band ATATGTAGGTTAAGGGACATTCAGGTTGGTTCGC is in?
Medium

Categorize the following entry: ATCTCTAGGTAACAATTTCAGTGAAAGAGAGGAC
Low

Assign a category based on measured PBM binding z-score for CCTACTGGGCCACGGTCATTGATCAGTCAAAGCA and give only the class name.
Low

Hi, small favor: classify CTACCAAGATGAACAAGGTCGTTGATTACTATTC by its PBM binding z-score when you get a moment.
Medium

Classify this sequence: TCATATAGCTAAATGCTAGGTGAAAGTCCGATCT
Low

Into which category would you place GGAACGAGGGCATTCGAGTGGATAGCATGGCGAT ?
Medium

Lab log: CAGCCTAGGTCAGGGTCAGTATAGGAGGAACGTT — assign PBM binding z-score category
Medium

Any idea which band CGAACTAGGTCAAGGACAGTGATTCTCCGCACGC is in?
Medium

Band for the recorded PBM binding z-score of TAGGCTAGGTCATGGGCCAGTATACCACGCGAAC ?
Medium

Please indicate the class for CAGCCTAGGTCAGGGCCACTATAGGAGGAACGTT based on its PBM binding z-score.
Low

Please report the category associated with AGAACGAGGGCAATGAGTTGATTGCACGGGTGGC , nothing else.
High

Class for GCAGACAGGTGAAACTCAGGTAACTCAGGGTGGC ?
Low

The entry to classify is AGTTAAAGTTCACTAGGTAACGTAAGATTCAGCT ; which class holds it?
High

Class? Entry: CCAGACAGGTTAGAAGGTAACTCAGCCTCGATTA
Low

Category of CAAACTAGGTCAATAGGTCAAAGTCCGCTTCCCG :
High

Which PBM binding z-score band matches GCTAGCAGGCCGTTTGGGTCACTCAATGACGGGC ?
Low

The entry to classify is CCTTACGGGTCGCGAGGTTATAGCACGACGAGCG ; which class holds it?
Medium

Hi, small favor: classify CGTCCAAGGTCAGAGAGGTCAGTGGATGCCGAGT by its PBM binding z-score when you get a moment.
High

Quick check: band for TCGAGTAGGTTAAGGGCATTCAGAATGGCGTCGA
Medium

Which bin, given its PBM binding z-score, does ATATGTAGGTTATCGGCTCATTCAGTTTGCGCAT occupy?
Medium

Using the reported PBM binding z-score, which band applies to CGTCCAAGGTCAGAGAGGTTAGTGAATGCCGAGT ?
High

Form: Item = TCTTGTAGATCAGCAGGTTAAGTAAGCTGGCCAA ; Class = ?
Low

----------
Test system: RARa:RXR (NR concentration 270 nM, RXRa partner concentration 90 nM)
Experimental protocol: PBM binding z-score (relative to random genomic background probes); higher = stronger binding; sequences stand for … in GC…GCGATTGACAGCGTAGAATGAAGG
Decide by PBM binding z-score: equal to or exceeding 1 means 1 (yes), less means 0 (no).

Evaluate TTACCAAGGTGAAAGGTCGTTAATGCACGCCTTG : PBM binding z-score at minimum 1?
1 (yes)

Hello, I need to know if CCTACTGGGCTATTCAGAGGTCATTGATCATATG has measured PBM binding z-score not below 1. Thanks!
1 (yes)

Please check the record CCGACTGGGGCAAGGGTACCATAACGCACAGCCA and state if its PBM binding z-score is at or above 1.
0 (no)

Could you please find out whether AGATGTAGGTTACATCCGGGTCATTCAGGCTATG has PBM binding z-score that meets 1 or exceeds it?
1 (yes)

Determine whether this sequence has PBM binding z-score no lower than 1: ATATGTAGGTTATCGGGTCATGCAGTTTGCGCAT
1 (yes)

Answer whether PBM binding z-score of CTCGAAAGGTCGTGCTCAGGAGAGTATACCAAAC is greater than or equal to 1.
1 (yes)

Identify whether the reported PBM binding z-score of the following sequence is 1 or greater: ACTAGTTGGTCAGCTGAGGTCACCCACAATTCGG
1 (yes)

Quick check: does TAGCCTAGTTCATTGGGCCAGTATAGTACGCATC have PBM binding z-score greater than or equal to 1?
0 (no)

Is the recorded value of PBM binding z-score equal to or greater than 1 for this sequence? CCTAGTTGGTCAAGGTCACAAACGCTATAGGTAC
1 (yes)

Answer whether PBM binding z-score of ATATGTAGGTGATCGGGTCATTCAGTTTGCGCAT is greater than or equal to 1.
1 (yes)

// inclusive: PBM binding z-score at least 1? input: CCTACTGGGCCAAAGGTAATTGATTCCAATGCTC
0 (no)

State whether the measured PBM binding z-score reaches 1, counting equality as reaching it, for CCTTACGGATCACTGACAGGTTATAGCATTTGGA
0 (no)

Has TAGCCTAGGTCAGATCGGGCCAGTGTACGCTATA a recorded PBM binding z-score greater than or equal to 1?
1 (yes)

Decide: PBM binding z-score of CCTACTCGGCCACGAAAGGTCATTGATTCAGTGA >= 1?
1 (yes)

# bool: PBM binding z-score of CCTACTGGGCCATCAGGTCATTGGTATCAACGTT >= 1
1 (yes)

Say whether ATCTCAAGGTAACCAAGTTCAGTGAATGCCGAAC shows PBM binding z-score of 1 or more.
1 (yes)

Does PBM binding z-score meet or surpass 1 for TTACCAAGGTGAAAGGGCGTTGATGCACGCCTTG ?
1 (yes)

# bool: PBM binding z-score of CAAACTAGGTCATCGGAAGGTCAAAGTCCGCATG >= 1
1 (yes)

In plain terms: is recorded PBM binding z-score at least 1 for TCTATTTGGTCAAAGGTCACACACTCGAAATGCG ?
1 (yes)

Quick check: does CTACCTAGGTGAACAAGGTCGTTGATTACTATTC have PBM binding z-score greater than or equal to 1?
1 (yes)

# check: PBM binding z-score of ACAGACAGGTGCTGAAGGTAACTCAGGCTATCAT is greater than or equal to 1
0 (no)

Please indicate if the recorded PBM binding z-score for CCTACTGTGCCACGAAAGGTCATTGATTCAGTGA meets or exceeds 1.
1 (yes)

PBM binding z-score >= 1 for GCGACTGGGGCATCAGCAGGTTACCATGACTTAA ?
0 (no)

Is PBM binding z-score at least 1? Consider CATACAGGGTCAGCTAGACCAGAGTAGGGACGGC
1 (yes)

Decide: is the reported value of PBM binding z-score for CAAACTAGGTCACGAAAGGTCAAACTCGAATGAC equal to or greater than 1?
1 (yes)

Has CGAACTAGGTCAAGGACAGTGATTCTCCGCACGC a recorded PBM binding z-score greater than or equal to 1?
1 (yes)

Determine whether measured PBM binding z-score meets or exceeds 1 for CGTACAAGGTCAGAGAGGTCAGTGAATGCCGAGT
1 (yes)

Determine whether this sequence has PBM binding z-score no lower than 1: CGAACTAGTTCATCCAGGACAGTGAATACATTGA
1 (yes)

Quick check: does CCTACTGGGCCATCAGCTCATTGATATCAACGTT have PBM binding z-score greater than or equal to 1?
0 (no)

Check this sequence for PBM binding z-score at or above 1: TCATATAGGTAAATGCTAGATGAAAGTCCGATCT
0 (no)

I'd appreciate it if you could say whether CGTCCAAGGCCAGCAGGTCAGTGAAAGCGACGTG has PBM binding z-score at least equal to 1.
0 (no)

Entry TCATATAGGTAATACAGGTGAACGTCGGCATCTA : is its PBM binding z-score no less than 1?
1 (yes)

In plain terms: is recorded PBM binding z-score at least 1 for CAAACTAGGTCACGAAAGGTCTAAGTCGAATGAC ?
1 (yes)

Quick check: does GCGACTGGGGCATCAGCAGGTTACCATAACTTAA have PBM binding z-score greater than or equal to 1?
0 (no)

Check if PBM binding z-score >= 1 (inclusive). Item: CTCGAAAGGTCGGTGGAGGTGAGTATACGGATAA
1 (yes)

// inclusive: PBM binding z-score at least 1? input: TCTCGGAGGACACGAAAGGTCAGAGCCCGACATC
1 (yes)

Answer whether PBM binding z-score of TCTATTAGTTGATTAGTGCAACCGAAACAGCGGA is greater than or equal to 1.
0 (no)

Please indicate if the recorded PBM binding z-score for AATACAGGGTCACTAGGCCAGCGTAGGTACGAAT meets or exceeds 1.
1 (yes)

API: above_or_equal(metric=PBM binding z-score, cutoff=1) for item GGAACGAGGGCAAGTTGACAGCAGAGTTTGATGG
0 (no)

Decide: PBM binding z-score of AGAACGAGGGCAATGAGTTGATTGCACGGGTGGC >= 1?
0 (no)

Could you tell me if the measured PBM binding z-score of TCTAGTTGGTAACGGAGGTCACACACGACGGGTA reaches 1 or more?
1 (yes)

Check this sequence for PBM binding z-score at or above 1: CCGACTGGGGCATGGTTACCATAACGCACAGCCA
0 (no)

Does PBM binding z-score meet or surpass 1 for ATATGTAGGTTATCTGGTCATTCAGTTTGCGCAT ?
0 (no)

PBM binding z-score >= 1 for AGTCAAAGTTCACTAGGTAACGTGAGATTCAGCT ?
1 (yes)

Test whether the sequence TCATATAGGGAAAGGTGAAAGTCGAACGATATGA records PBM binding z-score of 1 or higher.
1 (yes)

Please indicate if the recorded PBM binding z-score for GCTGCTAGGTGAGGTTGGTCAGCTAACGGGTACG meets or exceeds 1.
0 (no)

Determine whether this sequence has PBM binding z-score no lower than 1: ATACCGAGGTGATCGTGAGGTCGTTGATACTAAC
1 (yes)

Given GCTAGCAGGCAATTTGGGTCACTCAATGACGGGC , state whether its PBM binding z-score is at least 1.
1 (yes)

Exam item: decide whether the reported PBM binding z-score for CGTCAAAGTTCTACTAAGGTAACGTAAAGCACGC is at least 1.
0 (no)

Determine whether measured PBM binding z-score meets or exceeds 1 for TCATATAGGTATTACAGGTGAAAGTCGGCATCTA
1 (yes)

Hello, I need to know if GCTGCTAGGGCAGGTTGGTCAGCTAACGGGTACG has measured PBM binding z-score not below 1. Thanks!
0 (no)
